Every entry's value here was drawn from the NIST ThermoML archive (doi:10.1021/je050440b).

- EXPERIMENTAL DETAILS: activity coefficient (dimensionless); of the first substance listed, at infinite dilution; xn = mol fraction of the nth substance listed
- STATED CONDITIONS: 374.95 K; Liquid; Chromatography; x1 = 0
Categorize each record by its activity coefficient using class 1: < 2; class 2: ≥ 2 and < 7; class 3: ≥ 7

INSERT INTO measurements (compound, classification) VALUES
  ('CCCCCCCCC [nonane] + CCCC[N+](C)(C)C.O=S(=O)([N-]S(=O)(=O)C(F)(F)F)C(F)(F)F', 'class 3'),
  ('CCCCCc1ccccc1 [pentylbenzene] + CCCC[N+](C)(C)C.O=S(=O)([N-]S(=O)(=O)C(F)(F)F)C(F)(F)F', 'class 3'),
  ('CCC(C)O (stereo unspecified) [butan-2-ol] + CCCC[N+](C)(C)C.O=S(=O)([N-]S(=O)(=O)C(F)(F)F)C(F)(F)F', 'class 1'),
  ('CCCCCCCC=O [octanal] + CCCC[N+](C)(C)C.O=S(=O)([N-]S(=O)(=O)C(F)(F)F)C(F)(F)F', 'class 2'),
  ('CCCCc1ccccc1 [butylbenzene] + CCCC[N+](C)(C)C.O=S(=O)([N-]S(=O)(=O)C(F)(F)F)C(F)(F)F', 'class 2'),
  ('C=CCCCCCCCCC [1-undecene] + CCCC[N+](C)(C)C.O=S(=O)([N-]S(=O)(=O)C(F)(F)F)C(F)(F)F', 'class 3'),
  ('CCCCCC(=O)OC [methyl hexanoate] + CCCC[N+](C)(C)C.O=S(=O)([N-]S(=O)(=O)C(F)(F)F)C(F)(F)F', 'class 2'),
  ('CCCCCCC=O [heptanal] + CCCC[N+](C)(C)C.O=S(=O)([N-]S(=O)(=O)C(F)(F)F)C(F)(F)F', 'class 1'),
  ('CCCCC(=O)OC [methyl pentanoate] + CCCC[N+](C)(C)C.O=S(=O)([N-]S(=O)(=O)C(F)(F)F)C(F)(F)F', 'class 1'),
  ('CCCCCCC(=O)OC [methyl heptanoate] + CCCC[N+](C)(C)C.O=S(=O)([N-]S(=O)(=O)C(F)(F)F)C(F)(F)F', 'class 2'),
  ('CCCCCCCCCCC [undecane] + CCCC[N+](C)(C)C.O=S(=O)([N-]S(=O)(=O)C(F)(F)F)C(F)(F)F', 'class 3');
